This listing pairs binders with measured kon.
# STUDY TARGET: T1, Soluble heterodimeric CD3 protein (hCD3-epsilon/hCD3-delta) with either a human Fc tag (hFcΔAdp/hFc) or a … (human, UniProt P07766 23-126; P04234 22-105)
# T1 construct: also called hCD3ε/δ; not shown: Fc tag: human (hFcΔAdp/hFc)
# T1 sequence (P07766 23-126 limits assumed, stated change not applied, chain 1 of 2): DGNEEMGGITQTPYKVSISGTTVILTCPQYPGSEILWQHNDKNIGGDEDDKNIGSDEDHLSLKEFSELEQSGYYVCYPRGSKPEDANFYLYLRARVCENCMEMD
# T1 sequence (P04234 22-105 limits assumed, stated change not applied, chain 2 of 2): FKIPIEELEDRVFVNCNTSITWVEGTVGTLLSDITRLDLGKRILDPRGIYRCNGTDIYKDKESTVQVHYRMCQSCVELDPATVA
# ASSAY COMMENT: SPR Biacore 25C antigen-capture
PARAMETER MEASURED: kon (M⁻¹ s⁻¹)

BINDER	QUANTITATIVE RESULT
H1H5772S (antibody, V domains shown, H1H: human IgG1 Fc; divalent; also called H1H5772P) VH: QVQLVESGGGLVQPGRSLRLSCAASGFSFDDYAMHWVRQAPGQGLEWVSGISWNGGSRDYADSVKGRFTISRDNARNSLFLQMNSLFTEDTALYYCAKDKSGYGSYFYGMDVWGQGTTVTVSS VL: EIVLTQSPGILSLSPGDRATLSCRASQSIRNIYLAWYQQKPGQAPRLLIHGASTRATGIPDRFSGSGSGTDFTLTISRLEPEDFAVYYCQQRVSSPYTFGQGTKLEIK	519000
H1M2692N (antibody, mouse IgG1, V domains shown, H1M: mouse IgG1 Fc, human variable regions; divalent) VH: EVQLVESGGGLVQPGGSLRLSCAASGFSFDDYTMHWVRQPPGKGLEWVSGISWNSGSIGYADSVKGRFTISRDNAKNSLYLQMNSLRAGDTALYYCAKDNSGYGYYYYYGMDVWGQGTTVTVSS VL: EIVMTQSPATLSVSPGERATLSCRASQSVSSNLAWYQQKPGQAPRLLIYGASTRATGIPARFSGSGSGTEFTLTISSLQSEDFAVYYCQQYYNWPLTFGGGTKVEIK	41900
